# test details: Primary qHTS for inhibitors of La Crosse Virus (LACV) - induced cell death in SH-SY5Y cells (AID 1508616);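 also: top concentration of the series differs between compounds; 0% = infected DMSO wells and 100% = uninfected DMSO wells; higher means more rescue of cells from virus-induced death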
# conditions used: SH-SY5Y LACV cytopathicity rescue, ATP luminescence, 6 d; series mostly up to 4.29 µM
Results filed as inconclusive are left out. Activity calls are given as the source filed them. Calls follow the shape of the dose curve; as a rule, active = well fitted inhibition curve with a large enough effect; inconclusive = small, poorly fitted or top-dose-only effect; inactive = no such curve, though single readings can be large or run the other way.
experimental readout: outcome

INSERT INTO results (compound, experimental_readout, observed_result) VALUES
  ('CCC(OC(C)=O)C(CC(C)NC)(c1ccccc1)c1ccccc1 (stereo unspecified)', 'outcome', 'inactive'),
  ('CC(C)=CCN1CC[C@@]2(C)c3cc(O)ccc3C[C@@H]1[C@@H]2C', 'outcome', 'inactive'),
  ('C[C@]12CC[C@H]3[C@@H](CC=C4C[C@@H](O)CC[C@@]43C)[C@@H]1CC[C@@H]2O', 'outcome', 'inactive'),
  ('CN(C)C(=O)Oc1cc(OC(=O)N(C)C)cc(C(O)CNC(C)(C)C)c1 (stereo unspecified)', 'outcome', 'inactive'),
  ('CC(C)(O)C(Cl)(Cl)Cl', 'outcome', 'inactive');

// moving on: another record for outcome
So, CC(C)C(Br)C(=O)NC(N)=O (stereo unspecified) ? Its outcome was inactive

---

Property: max response; scope: individual compounds
# System: HaCat
# test details: Cytotoxic Profiling of Annotated Libraries Using Quantitative High-Throughput Screening (AID 1296008); also: % is scaled to controls: 0 for no effect and ±100 for the full control effect; nearly all actives have a fitted effect of over 60% in size
# conditions used: Five cell lines viability, CellTiter-Glo ATP luminescence, 48-72 h; stronger effect = lower value
Records with an inconclusive call do not appear.
Numeric only. Scale: %

INSERT INTO measurements (compound, target, experimental_readout, observed_result) VALUES
  ('CCN1CCCC1CNC(=O)C(O)(c1ccccc1)c1ccccc1 (stereo unspecified)', 'HaCat', 'max response', -7.18),
  ('CC(=O)OC1(c2ccccc2)CCN(CCc2ccccc2)CC1', 'HaCat', 'max response', -10.1),
  ('Oc1c(Br)cc(Br)cc1Br', 'HaCat', 'max response', -13),
  ('CCC1(c2cccc(O)c2)CCCCN(C)C1 (stereo unspecified)', 'HaCat', 'max response', -5.66),
  ('Cc1c(Cl)c(=O)oc2cc(OP(=O)(OCCCl)OCCCl)ccc12', 'HaCat', 'max response', 1.96);

Form: compound = O=C(N[C@@H]1N=C(c2ccccc2F)c2cccc3c2N(CC3)C1=O)c1cc2ccccc2[nH]1 ; max response = -2.29

So for CCCN(CCC)CCc1c[nH]c2ccccc12 , the logged max response turned out to be -5.54

Item: CCCC[N+]1(C)[C@@H]2CC(OC(=O)[C@H](CO)c3ccccc3)C[C@H]1[C@@H]1O[C@@H]12 (stereo partly specified) | max response: -9.09

Entry CCO[C@H]1O[C@@H]2OC3(C)CC[C@H]4[C@H](C)CC[C@@H]([C@H]1C)[C@@]24OO3 ; max response = -19.4

Sample COc1cc(CC(C)N)cc2c1OCO2 (stereo unspecified) ; max response observed: 1.78

Lab book: max response of COc1cc(CC(C)N)c(OC)cc1Br (stereo unspecified) noted as -6.81

---

# System: TAB165
# test details: qHTS profiling for inhibitors of Plasmodium falciparum proliferation (AID 504749); also: nearly all actives have a fitted effect of over 60% in size
# conditions used: P. falciparum in erythrocytes, SYBR Green DNA, 72 h; series mostly up to 28.7 µM
Inconclusive results are not listed. Calls of active or inactive are those of the source. The call rests on the fitted dose curve; in most records, active means well fitted inhibition curve with a large enough effect; inconclusive means small, poorly fitted or top-dose-only effect; inactive means flat fitted curve, though single readings scatter.
Result category, one only: 1 (yes) for active, 0 (no) for inactive

INSERT INTO measurements (compound_structure_string, target, category) VALUES
  ('Oc1c(Br)cc(Br)cc1Br', 'TAB165', '0 (no)');

Given CCCCCCCCCCCC[N+](C)(C)CCOc1ccccc1 , state the outcome it received in this test.
1 (yes)

Call for entry CCS(=O)(=O)C(C)(C)S(=O)(=O)CC :
0 (no)

Please share the test call associated with O=C(CCCN1CCC(n2c(=O)[nH]c3ccccc32)CC1)c1ccc(F)cc1 .
1 (yes)

Short answer needed: outcome of this test for CCNc1nc(Cl)nc(NCC)n1 ?
0 (no)

Would you mind telling me which call this test gave CC(C)(O)C(Cl)(Cl)Cl ?
1 (yes)

---

# Test system: MKL-1
# test details: qHTS assay to identify novel small-molecules to repurpose for Merkel cell carcinoma treatment (AID 1296009); also: nearly all actives have a fitted effect of over 60% in size
# conditions used: MCC and control cell lines, CellTiter-Glo viability, 72 h; series mostly up to 46 µM
Records with an inconclusive call do not appear. The source made the active and inactive calls. The call rests on the fitted dose curve; in most records, active means well fitted inhibition curve with a large enough effect; inconclusive means small, poorly fitted or top-dose-only effect; inactive means flat fitted curve, though single readings scatter.
Tick one outcome: T = active, F = inactive

Some solved cases for reference:
INSERT INTO assay_data (compound, category) VALUES
  ('CN1C[C@@H](NS(=O)(=O)N(C)C)C[C@@H]2c3cccc4c3c(cn4C)C[C@H]21', 'F'),
  ('CCN(Cc1ccc(Cl)nc1)/C(=C/[N+](=O)[O-])NC', 'F'),
  ('Sc1ccccc1Cl', 'F'),
  ('O=C(NC(=O)c1c(F)cccc1F)Nc1cc(Cl)c(OC(F)(F)C(F)C(F)(F)F)cc1Cl (stereo unspecified)', 'F'),
  ('O=C(N[C@@H]1N=C(c2ccccc2F)c2cccc3c2N(CC3)C1=O)c1cc2ccccc2[nH]1', 'F'),
  ('O=c1[nH]c2cc(Cl)ccc2n1C1CCNCC1', 'F'),
  ('O=C1CN2CCOC2(c2ccccc2Cl)c2cc(Cl)ccc2N1 (stereo unspecified)', 'F'),
  ('Clc1ccc(C(OCCN2CCCCC2)c2ccccc2)cc1 (stereo unspecified)', 'F'),
  ('C[C@@H]1CN(C2CCC(C#N)(c3ccc(F)cc3)CC2)CC[C@]1(C(=O)O)c1ccccc1 (stereo partly specified)', 'F'),
  ('COc1cc(C[C@@H](C)N)c(OC)cc1Br', 'F');

I'd appreciate the recorded outcome for Cc1ccc([N+](=O)[O-])[c]2c1[O][Hg]2 from this test.
T

---

# System: CP329
# test details: qHTS profiling for inhibitors of Plasmodium falciparum proliferation (AID 504749); also: nearly all actives have a fitted effect of over 60% in size
# conditions used: P. falciparum in erythrocytes, SYBR Green DNA, 72 h; series mostly up to 28.7 µM
Inconclusive results are not listed. The source made the active and inactive calls. Calls come from the whole dose curve; as a rule, active = well fitted inhibition curve with a large enough effect; inconclusive = small, poorly fitted or top-dose-only effect; inactive = flat fitted curve, though single readings scatter.
Return exactly one item of active, inactive

The following compounds have reported results that may help.
INSERT INTO results (compound, category) VALUES
  ('NC(=O)CN1CCCC1=O', 'inactive'),
  ('NCc1cccnc1', 'inactive'),
  ('COc1ccc(C(=O)N2CCCC2=O)cc1', 'inactive');

Kindly provide the recorded test outcome for the following compound: CC(C)C(Br)C(=O)NC(N)=O (centres undefined)
inactive

How was Cc1ncc2n1-c1ccc(Cl)cc1C(c1ccccc1F)=NC2 classified in this test?
inactive

Returns: the outcome recorded for c1cc2c(c(N3CCNCC3)c1)OCCO2 in this assay.
inactive

---

# System: ATS189
# test details: qHTS profiling for inhibitors of Plasmodium falciparum proliferation (AID 504749); also: nearly all actives have a fitted effect of over 60% in size
# conditions used: P. falciparum in erythrocytes, SYBR Green DNA, 72 h; series mostly up to 28.7 µM
Inconclusive results are not listed. Activity calls are given as the source filed them. Calls come from the whole dose curve; as a rule, active = well fitted inhibition curve with a large enough effect; inconclusive = small, poorly fitted or top-dose-only effect; inactive = flat fitted curve, though single readings scatter.
Could you please pick one outcome from this set? active, inactive

Solved entries:
INSERT INTO results (molecule, category) VALUES
  ('Cc1c(Cl)c(=O)oc2cc(OP(=O)(OCCCl)OCCCl)ccc12', 'active'),
  ('C[C@]12CC[C@H]3[C@@H](CC=C4C[C@@H](O)CC[C@@]43C)[C@@H]1CC[C@@H]2O', 'inactive'),
  ('Cc1ncc2n1-c1ccc(Cl)cc1C(c1ccccc1F)=NC2', 'inactive'),
  ('COC(=O)C1=CCCN(C)C1', 'inactive'),
  ('CC(C)(O)C(Cl)(Cl)Cl', 'active');

Short answer needed: outcome of this test for NC(=O)OCCCc1ccccc1 ?
inactive

What did this assay record as the result for NC(=O)CN1CCCC1=O ?
inactive

Query: recorded result category for ClC1=C(Cl)C2(Cl)C(CBr)CC1(Cl)C2(Cl)Cl (stereo not given) in this test
inactive

For CNC(=O)Oc1cccc2ccccc12 , which call appears in the assay record?
inactive

Called result for O=C(O)c1nn(Cc2ccc(Cl)cc2Cl)c2ccccc12
inactive

Look up the recorded call for CC(C)[N+](C)(CCC(C(N)=O)(c1ccccc1)c1ccccc1)C(C)C in this test.
inactive

Assay result, entry CCOC(=O)NC(O)C(Cl)(Cl)Cl (stereo not given) — outcome?
inactive

Answer briefly: the call reported for C[N+]1(CCC(C(N)=O)(c2ccccc2)c2ccccc2)CCCCC1 in this assay.
inactive

What was the test verdict on COc1ccc(C(=O)N2CCCC2=O)cc1 ?
inactive

Record request — test call for CCC(=O)O[C@H]1CC[C@H]2[C@@H]3CCC4=CC(=O)CC[C@]4(C)[C@H]3CC[C@]12C
inactive

Assay result, entry O=C(CCCN1CCC(n2c(=O)[nH]c3ccccc32)CC1)c1ccc(F)cc1 — outcome?
active

What call does the record list for O=c1n(Cl)c(=O)n(Cl)c(=O)n1Cl ?
inactive

Please indicate how the test categorized CC(C)C(Br)C(=O)NC(N)=O (stereo not given) .
inactive

Returns: the outcome recorded for CN(C)C(=S)SSC(=S)N(C)C in this assay.
active

Recorded call for CCS(=O)(=O)C(C)(C)S(=O)(=O)CC ?
inactive
